molecular target: UniProtKB Q08499
Sequence (Q08499 whole entry): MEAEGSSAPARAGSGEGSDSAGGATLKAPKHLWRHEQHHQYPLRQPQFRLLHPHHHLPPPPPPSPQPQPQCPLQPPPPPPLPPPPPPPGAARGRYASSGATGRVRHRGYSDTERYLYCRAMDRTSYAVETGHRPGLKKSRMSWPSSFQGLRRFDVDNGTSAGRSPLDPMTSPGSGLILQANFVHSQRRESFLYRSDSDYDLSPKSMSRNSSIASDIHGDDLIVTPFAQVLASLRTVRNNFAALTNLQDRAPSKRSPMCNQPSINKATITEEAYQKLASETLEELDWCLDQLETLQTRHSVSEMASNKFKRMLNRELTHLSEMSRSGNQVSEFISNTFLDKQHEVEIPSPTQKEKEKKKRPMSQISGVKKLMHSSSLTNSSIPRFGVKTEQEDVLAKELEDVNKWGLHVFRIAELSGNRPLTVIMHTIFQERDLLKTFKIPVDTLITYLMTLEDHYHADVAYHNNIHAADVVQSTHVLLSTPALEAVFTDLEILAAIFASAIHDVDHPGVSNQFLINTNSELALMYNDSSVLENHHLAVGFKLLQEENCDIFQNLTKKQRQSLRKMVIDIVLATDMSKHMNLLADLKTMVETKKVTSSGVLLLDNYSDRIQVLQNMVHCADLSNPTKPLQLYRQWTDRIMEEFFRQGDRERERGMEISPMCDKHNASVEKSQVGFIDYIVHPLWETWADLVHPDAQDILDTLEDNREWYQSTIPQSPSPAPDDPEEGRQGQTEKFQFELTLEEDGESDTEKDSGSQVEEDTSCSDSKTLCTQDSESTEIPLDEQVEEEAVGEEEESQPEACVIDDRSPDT
pIC50: −log10 of the molar value.
Values of pIC50 greater than or equal to 6 map to True; values below map to False.

Use the examples below as a reference point.
Asked: Decide: is the reported value of pIC50 for COc1cc2c(-c3cc(OCC4CC4)cc(OCC4CC4)c3)nc(-c3cccs3)nc2cc1OCCO equal to or greater than 6?
Given back: False

Asked: Decide: is the reported value of pIC50 for CCOC(=O)COc1cc2nc(C)nc(-c3cc(OCC4CC4)cc(OCC4CC4)c3)c2cc1OC equal to or greater than 6?
Given back: False

Asked: Decide: is the reported value of pIC50 for COc1cc2c(-c3cc(OCC4CC4)cc(OCC4CC4)c3)nc(OCCCO)nc2cc1OCCO equal to or greater than 6?
Given back: True

Asked: Decide: is the reported value of pIC50 for CCc1nc(-c2cc(OCC3CC3)cc(OCC3CC3)c2)c2cc(OC)c(OCCO)cc2n1 equal to or greater than 6?
Given back: True

From here, focus on the item given below.
Asked: Decide: is the reported value of pIC50 for COc1nc(-c2cc(OCC3CC3)cc(OCC3CC3)c2)c2cc(OC)c(OCCO)cc2n1 equal to or greater than 6?
Given back: True
